Biological target: T1, human ferroportin (SLC40A1) fused with GFP, stably expressed in HEK293 cells (human, UniProt Q9NP59 1-571)
T1 sequence (looked up): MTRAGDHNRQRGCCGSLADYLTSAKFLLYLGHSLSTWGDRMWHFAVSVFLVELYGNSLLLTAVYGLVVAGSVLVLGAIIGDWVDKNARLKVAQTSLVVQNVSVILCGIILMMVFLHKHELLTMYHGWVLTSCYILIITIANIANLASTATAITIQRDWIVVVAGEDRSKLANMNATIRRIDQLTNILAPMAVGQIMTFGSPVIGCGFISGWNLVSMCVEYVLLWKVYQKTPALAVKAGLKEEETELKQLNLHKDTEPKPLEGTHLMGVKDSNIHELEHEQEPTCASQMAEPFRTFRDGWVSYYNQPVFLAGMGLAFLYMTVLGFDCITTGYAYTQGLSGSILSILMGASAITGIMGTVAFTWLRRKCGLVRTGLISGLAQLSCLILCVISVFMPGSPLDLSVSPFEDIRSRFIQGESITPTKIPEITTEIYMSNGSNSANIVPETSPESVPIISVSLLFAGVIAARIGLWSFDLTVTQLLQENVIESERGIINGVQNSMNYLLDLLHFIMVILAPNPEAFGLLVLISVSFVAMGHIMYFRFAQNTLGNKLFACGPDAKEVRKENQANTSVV
Assay: cell-based or functional assay
Positions of bridges follow the written chain, without caps; N, C: chain ends. Non-standard residues stand in square brackets, D forms with d. Groups on a side chain read outwards from the residue. *: point of attachment. PEG12 = NCCOCCOCCOCCOCCOCCOCCOCCOCCOCCOCCOCCOCCC(=O)O; Phe(3,4-F2) = N[C@@H](Cc1ccc(F)c(F)c1)C(=O)O; Dip = N[C@H](C(=O)O)C(c1ccccc1)c1ccccc1; Palmitoyl = CCCCCCCCCCCCCCCC(=O)*; Isovaleryl = CC(C)CC(=O)*; Npc = nipecotic acid; Sar = CNCC(=O)O
property: FPN IC50 (nM)

Please review the following examples before continuing.
{"binder": "Isovaleryl-DTHFPCI[dK]FK([PEG12-Palmitoyl])RC[dR]-NH2 (disulfide 6-12 (inferred)) [Compd ID 85]", "FPN IC50 [nM]": 27}
{"binder": "DTHFPCIKFKPCK (Isovaleric acid-DTHFPCIKF-Lys[PEG11-Palm]-PCK-NH2) [Compd ID 9]", "FPN IC50 [nM]": 15}
{"binder": "DTHFPCIKFKPRSKGC (Isovaleric acid-DTHFPCIKF-Lys[PEG11-Palm]-PRSKGC-NH2) [Compd ID 3]", "FPN IC50 [nM]": 16}

(P) Isovaleryl-DTHFPCI[dK]FK([PEG12-Palmitoyl])KC-NH2 (disulfide 6-12 (inferred)) [Compd ID 80]
(Q) Isovaleryl-DTH[Dip][Npc]CI[dK][Phe(3,4-F2)]K([PEG12-Palmitoyl])KC-NH2 (disulfide 6-12 (inferred)) [Compd ID 127]
(R) Isovaleryl-DTHFPCI[dK]FK([PEG12-Palmitoyl])PRSK[Sar]C-NH2 (disulfide 6-16 (inferred)) [Compd ID 74]
(S) DTHXPCIKFKXX (Isovaleric acid-DTH-[Dpa]-PCI-[(D)Lys]-F-[Lys(Peg11-Palm)]-[Dap]-[Pen]-NH2) [Compd ID 140]
(T) DTHXPCIKXKKC (Isovaleric acid-DTH-[Dpa]-PCI-[(D)Lys]-[b-hPhe]-[Lys(Ac)]-[(D)Lys]-C-NH2) [Compd ID 152]
Your job: order these 5 records by FPN IC50, ascending. Your answer should be the labels, listed in the requested order.
Q, R, P, S, T
(Q: 3 nM, R: 9 nM, P: 14 nM, S: 51 nM, T: 146 nM)
